- Tested on: Rattus norvegicus
- protocol.summary: AUC (last) in rat at 30 mg/kg, po
- Format: ADME, organism-based, Plasma
- Parameters: time 0 - last, dose 30 mg/kg, route oral
- condition: in vivo
measurement.name: AUC
Param answer (str): number followed by unit.

QUERY: Quick one: give measured AUC for "CC#C[C@]1(O)CC[C@H]2[C@@H]3CCC4=CC(=O)CCC4=C3[C@@H](c3ccc(N(C)C)cc3)C[C@@]21C"
RESULT: 446 ng·h/mL

----------
- protocol.summary: Tmax in rat at 30 mg/kg, po
- Format: ADME, organism-based
- Design: dose 30 mg/kg, route oral
- condition: in vivo
measurement.name: Tmax (h)
API: value field is a number in h; no unit string.

QUERY: Quick one: give measured Tmax for "CC#C[C@]1(O)CC[C@H]2[C@@H]3CCC4=CC(=O)CCC4=C3[C@@H](c3ccc(N(C)C)cc3)C[C@@]21C"
RESULT: 12.5
